Target: AtAFB2 (Arabidopsis thaliana)
Construct: His10 (N, cleaved yes); eGFP (N, cleaved yes); FLAG (N, cleaved yes); made in house; host or cells: baculovirus; Trichoplusia ni Hi5 cells (virus generated in Sf9)
Test: SPR single cycle kinetics, AtAFB2
Assay type: binding
Experimental: Auxin binding assays using surface plasmon resonance (SPR) were performed on a Biacore 2000 as described previously.[3], [18], [23] Protein was stored on ice and protein concentrations were assayed by A280 nm measurement (nanodrop, Thermo Scientific). Briefly, AtAux/IAA7 degron peptide was immobilized on streptavidin‐coated SPR chips, and binding was measured in the presence of IAA or auxin analogue by recruitment of the TIR1/AFB protein from solution as the co‐receptor complex formed on the chip. […]
Observable: pKd
Worth noting: pKd values are minus log10 of concentrations stated in mol/L.

Memo: O=C(O)COc1ccc(Cl)cc1Cl [2,4‐D, 2,4‐dichlorophenoxyacetic acid] , reported pKd: 3.41

###

Listed next: entries and their corresponding Kd.
Target: AtTIR1 (Arabidopsis thaliana)
Construct: His10 (N, cleaved yes); eGFP (N, cleaved yes); FLAG (N, cleaved yes); made in house; host or cells: baculovirus; Trichoplusia ni Hi5 cells (virus generated in Sf9)
Sequence (Q570C0 whole entry, other chains not shown): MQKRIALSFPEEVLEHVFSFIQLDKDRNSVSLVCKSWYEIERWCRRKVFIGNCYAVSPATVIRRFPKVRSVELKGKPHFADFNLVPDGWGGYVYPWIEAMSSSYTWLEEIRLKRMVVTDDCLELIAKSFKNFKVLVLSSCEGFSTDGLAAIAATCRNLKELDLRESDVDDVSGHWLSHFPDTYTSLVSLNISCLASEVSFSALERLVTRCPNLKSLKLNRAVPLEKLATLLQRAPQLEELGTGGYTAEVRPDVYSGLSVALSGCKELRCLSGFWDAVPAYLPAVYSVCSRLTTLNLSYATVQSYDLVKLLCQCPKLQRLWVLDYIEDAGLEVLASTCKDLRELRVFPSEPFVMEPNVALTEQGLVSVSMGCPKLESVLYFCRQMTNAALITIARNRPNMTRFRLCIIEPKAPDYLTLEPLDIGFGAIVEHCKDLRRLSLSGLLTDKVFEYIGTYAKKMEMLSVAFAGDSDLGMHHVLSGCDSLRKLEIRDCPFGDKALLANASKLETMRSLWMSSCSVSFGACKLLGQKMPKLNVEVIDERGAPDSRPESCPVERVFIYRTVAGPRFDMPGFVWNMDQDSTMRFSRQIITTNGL
Assay: biochemical
Format: binding
# answer = value followed by unit

>  <Structure As Smiles>
O=C(O)COc1ccc(Cl)cc1Cl

>  <Result>
229 µM

$$$$

Memo: "Nc1c(Cl)c(Cl)nc(C(=O)O)c1Cl" , reported Kd: 319 µM

###

Molecular target: AtAFB2 (Arabidopsis thaliana, UniProt Q9LW29)
Construct: His10 (N, cleaved yes); eGFP (N, cleaved yes); FLAG (N, cleaved yes); made in house; host or cells: baculovirus; Trichoplusia ni Hi5 cells (virus generated in Sf9)
Sequence (Q9LW29 whole entry, other chains not shown): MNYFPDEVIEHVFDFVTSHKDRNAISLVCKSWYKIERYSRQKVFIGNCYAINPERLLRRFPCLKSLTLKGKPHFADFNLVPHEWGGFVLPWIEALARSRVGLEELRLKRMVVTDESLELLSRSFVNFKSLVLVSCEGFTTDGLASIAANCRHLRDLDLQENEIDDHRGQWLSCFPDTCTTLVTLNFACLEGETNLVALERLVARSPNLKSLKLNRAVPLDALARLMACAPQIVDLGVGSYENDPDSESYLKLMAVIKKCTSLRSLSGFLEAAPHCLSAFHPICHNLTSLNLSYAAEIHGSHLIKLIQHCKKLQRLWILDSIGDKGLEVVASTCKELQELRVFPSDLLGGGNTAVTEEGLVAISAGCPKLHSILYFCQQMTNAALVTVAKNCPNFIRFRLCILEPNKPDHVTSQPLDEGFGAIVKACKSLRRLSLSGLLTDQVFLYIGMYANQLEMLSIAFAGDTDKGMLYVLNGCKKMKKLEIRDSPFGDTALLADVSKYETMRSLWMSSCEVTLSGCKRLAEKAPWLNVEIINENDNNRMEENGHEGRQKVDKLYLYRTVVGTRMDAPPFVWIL
Experiment: SPR relative binding (co-receptor complex formation with Aux/IAA7 degron), AtAFB2
Details: 50 μM compound, compared to IAA
Observable: Relative binding (in words)

See these solved cases before continuing.
>  <Molecule>
Nc1cc(Cl)nc(C(=O)O)c1Cl

>  <Result>
relatively low binding

$$$$
>  <Molecule>
Cc1cc(Cl)ccc1OCC(=O)O

>  <Result>
lower binding

$$$$
>  <Molecule>
Nc1c(Cl)c(Cl)nc(C(=O)O)c1Cl

>  <Result>
relatively low binding

$$$$
>  <Molecule>
O=C(O)c1nc(Cl)ccc1Cl

>  <Result>
relatively low binding

$$$$
>  <Molecule>
O=C(O)COc1nc(Cl)c(Cl)cc1Cl

>  <Result>
lower binding than IAA

$$$$
>  <Molecule>
CC(Oc1ccc(Cl)cc1Cl)C(=O)O (stereo not drawn)

>  <Result>
lower binding

$$$$

Memo: Cc1cc(Cl)ccc1OC(C)C(=O)O (stereo not drawn) , reported Relative binding (in words): lower binding

Memo: "Nc1c(Cl)c(F)nc(OCC(=O)O)c1Cl" , reported Relative binding (in words): lower binding than IAA

###

Tested on: Arabidopsis thaliana wild type (WT) Col‐0
Assay: Foliar efficacy bioassay, wild type
Type: in vivo
Conditions: foliar application, dry weight at 14 DAT
Procedure: Bioassays were carried out with the model species Arabidopsis thaliana. The wild type (WT) Col‐0 line was compared to an afb5‐1 mutant line in a Col‐0 background containing a missense mutation of R609K.[11] […] Visual injury/growth reduction observations were made at 7 and 14 days after treatment (DAT) and scored where 0% = no growth reduction and 100% = complete growth reduction or plant death. […]
Classes (GR50 (DW % of NT)): lo: < 4 g ai ha^−1; mid: ≥ 4 g ai ha^−1 and < 20 g ai ha^−1; hi: ≥ 20 g ai ha^−1

Task item: Form: Item = Nc1c(Cl)c(Cl)nc(C(=O)O)c1Cl [Picloram] ; Class = ?
Reply: mid

Task item: Form: Item = O=C(O)c1nc(Cl)ccc1Cl [Clopyralid] ; Class = ?
Reply: hi

Task item: Form: Item = COc1c(Cl)ccc(-c2nc(C(=O)O)c(Cl)c(N)c2F)c1F [Florpyrauxifen] ; Class = ?
Reply: lo

Task item: Form: Item = O=C(O)c1c(Cl)ccc2cc(Cl)cnc12 [Quinclorac] ; Class = ?
Reply: hi

Task item: Form: Item = O=C(O)COc1nc(Cl)c(Cl)cc1Cl [Triclopyr] ; Class = ?
Reply: mid

Task item: Form: Item = Nc1cc(Cl)nc(C(=O)O)c1Cl [Aminopyralid] ; Class = ?
Reply: lo

Task item: Form: Item = Nc1nc(C2CC2)nc(C(=O)O)c1Cl [Aminocyclopyrachlor] ; Class = ?
Reply: mid

Task item: Form: Item = Nc1c(Cl)c(F)nc(OCC(=O)O)c1Cl [Fluroxypyr] ; Class = ?
Reply: hi

Task item: Form: Item = COc1c(Cl)ccc(-c2cc(N)c(Cl)c(C(=O)O)n2)c1F [Halauxifen] ; Class = ?
Reply: lo

Task item: Form: Item = COc1c(Cl)ccc(Cl)c1C(=O)O [Dicamba] ; Class = ?
Reply: mid

###

System: Arabidopsis thaliana afb5‐1 mutant line
Assay type: in vivo
Details: afb5‐1, foliar application, visual injury
Protocol: Bioassays were carried out with the model species Arabidopsis thaliana. The wild type (WT) Col‐0 line was compared to an afb5‐1 mutant line in a Col‐0 background containing a missense mutation of R609K.[11] […] Visual injury/growth reduction observations were made at 7 and 14 days after treatment (DAT) and scored where 0% = no growth reduction and 100% = complete growth reduction or plant death. […]
Labelling field: enter 1 if recorded GR50 (visual injury) is less than 40 g ai ha^−1. Enter -1 if it equals or exceeds that cut-off.

Sample answers from the record:
>  <Structure As Smiles>
Nc1c(F)c(-c2ccc(Cl)cc2)nc(C(=O)O)c1Cl

>  <Assigned Class>
1

$$$$
>  <Structure As Smiles>
COc1c(Cl)ccc(Cl)c1C(=O)O

>  <Assigned Class>
-1

$$$$
>  <Structure As Smiles>
O=C(O)COc1nc(Cl)c(Cl)cc1Cl

>  <Assigned Class>
-1

$$$$

Task item: Is GR50 (visual injury) strictly under 40 g ai ha^−1 for the entry "Nc1nc(C2CC2)nc(C(=O)O)c1Cl" ?
Reply: 1

Task item: Is GR50 (visual injury) strictly under 40 g ai ha^−1 for the entry "O=C(O)c1nc(Cl)ccc1Cl" ?
Reply: -1

Task item: Is GR50 (visual injury) strictly under 40 g ai ha^−1 for the entry "COc1c(Cl)ccc(-c2cc(N)c(Cl)c(C(=O)O)n2)c1F" ?
Reply: 1

Task item: Is GR50 (visual injury) strictly under 40 g ai ha^−1 for the entry "COc1c(Cl)ccc(-c2nc(C(=O)O)c(Cl)c(N)c2F)c1F" ?
Reply: 1

Task item: Is GR50 (visual injury) strictly under 40 g ai ha^−1 for the entry "Nc1c(Cl)c(F)nc(OCC(=O)O)c1Cl" ?
Reply: -1

###

Target: AtAFB5 (Arabidopsis thaliana, UniProt Q9LTX2)
Construct: His10 (N, cleaved yes); eGFP (N, cleaved yes); FLAG (N, cleaved yes); made in house; host or cells: baculovirus; Trichoplusia ni Hi5 cells (virus generated in Sf9)
Sequence (Q9LTX2 whole entry, other chains not shown): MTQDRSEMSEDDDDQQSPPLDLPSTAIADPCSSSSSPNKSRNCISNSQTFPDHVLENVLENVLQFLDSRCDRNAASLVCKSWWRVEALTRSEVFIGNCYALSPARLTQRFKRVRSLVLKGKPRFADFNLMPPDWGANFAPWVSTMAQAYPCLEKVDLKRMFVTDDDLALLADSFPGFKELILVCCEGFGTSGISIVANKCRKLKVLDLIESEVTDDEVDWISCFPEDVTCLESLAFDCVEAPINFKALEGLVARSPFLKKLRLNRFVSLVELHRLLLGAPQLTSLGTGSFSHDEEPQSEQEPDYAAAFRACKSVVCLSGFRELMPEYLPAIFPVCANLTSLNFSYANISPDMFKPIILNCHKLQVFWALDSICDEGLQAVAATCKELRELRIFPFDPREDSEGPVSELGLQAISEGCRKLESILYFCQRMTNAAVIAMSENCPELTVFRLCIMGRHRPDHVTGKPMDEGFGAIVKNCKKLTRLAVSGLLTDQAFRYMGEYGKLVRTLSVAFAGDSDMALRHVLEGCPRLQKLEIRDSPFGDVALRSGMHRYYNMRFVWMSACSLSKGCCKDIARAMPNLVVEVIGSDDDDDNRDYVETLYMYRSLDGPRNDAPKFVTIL
Sequence (Q39255 whole entry partner, other chains not shown): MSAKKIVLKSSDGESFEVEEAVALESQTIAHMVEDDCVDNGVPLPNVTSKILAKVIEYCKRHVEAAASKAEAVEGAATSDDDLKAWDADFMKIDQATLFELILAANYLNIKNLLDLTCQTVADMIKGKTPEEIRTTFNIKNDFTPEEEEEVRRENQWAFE
Assay: biochemical
Format: binding
Conditions: averaged equilibrium dissociation constant, SPR single cycle kinetics; read-out: Ave KD
Method: Auxin binding assays using surface plasmon resonance (SPR) were performed on a Biacore 2000 as described previously.[3], [18], [23] Protein was stored on ice and protein concentrations were assayed by A280 nm measurement (nanodrop, Thermo Scientific). Briefly, AtAux/IAA7 degron peptide was immobilized on streptavidin‐coated SPR chips, and binding was measured in the presence of IAA or auxin analogue by recruitment of the TIR1/AFB protein from solution as the co‐receptor complex formed on the chip. […]
Observable: pKd
Worth noting: pKd values are minus log10 of concentrations stated in mol/L.

>  <Structure As Smiles>
O=C(O)Cc1c[nH]c2ccccc12

>  <Observable>
pKd

>  <Result>
4.48

$$$$
>  <Structure As Smiles>
Nc1c(Cl)c(F)nc(OCC(=O)O)c1Cl

>  <Observable>
pKd

>  <Result>
4.02

$$$$
>  <Structure As Smiles>
COc1c(Cl)ccc(-c2cc(N)c(Cl)c(C(=O)O)n2)c1F

>  <Observable>
pKd

>  <Result>
5.62

$$$$

Now for another entry.
Memo: "COc1c(Cl)ccc(-c2nc(C(=O)O)c(Cl)c(N)c2F)c1F" , reported pKd: 5.57

###

Target: AtAFB5 (Arabidopsis thaliana, UniProt Q9LTX2)
Construct: His10 (N, cleaved yes); eGFP (N, cleaved yes); FLAG (N, cleaved yes); made in house; host or cells: baculovirus; Trichoplusia ni Hi5 cells (virus generated in Sf9)
Assay: SPR relative binding (co-receptor complex formation with Aux/IAA7 degron), AtAFB5
Conditions: 50 μM compound, compared to IAA
Observable: Relative binding (in words)

See these solved cases before continuing.
>  <Compound>
O=C(O)c1nc(Cl)ccc1Cl [Clopyralid]

>  <Relative binding (in words)>
relatively low binding

$$$$
>  <Compound>
Nc1cc(Cl)nc(C(=O)O)c1Cl [Aminopyralid]

>  <Relative binding (in words)>
relatively low binding

$$$$
>  <Compound>
O=C(O)COc1nc(Cl)c(Cl)cc1Cl [Triclopyr]

>  <Relative binding (in words)>
lower binding than IAA

$$$$
>  <Compound>
Cc1cc(Cl)ccc1OC(C)C(=O)O (stereo not shown) [mecoprop]

>  <Relative binding (in words)>
lower binding

$$$$

Memo: Cc1cc(Cl)ccc1OCC(=O)O [MCPA, 2‐methyl‐4‐chlorophenoxyacetic acid] , reported Relative binding (in words): lower binding

Memo: Nc1c(Cl)c(Cl)nc(C(=O)O)c1Cl [Picloram] , reported Relative binding (in words): relatively low binding

Memo: Nc1c(Cl)c(F)nc(OCC(=O)O)c1Cl [Fluroxypyr] , reported Relative binding (in words): lower binding than IAA

Memo: CC(Oc1ccc(Cl)cc1Cl)C(=O)O (stereo not shown) [dichlorprop] , reported Relative binding (in words): lower binding
